- Measured Target: 5-hydroxytryptamine receptor 4 (Homo sapiens, UniProt Q13639)
- Sequence (Q13639 whole entry): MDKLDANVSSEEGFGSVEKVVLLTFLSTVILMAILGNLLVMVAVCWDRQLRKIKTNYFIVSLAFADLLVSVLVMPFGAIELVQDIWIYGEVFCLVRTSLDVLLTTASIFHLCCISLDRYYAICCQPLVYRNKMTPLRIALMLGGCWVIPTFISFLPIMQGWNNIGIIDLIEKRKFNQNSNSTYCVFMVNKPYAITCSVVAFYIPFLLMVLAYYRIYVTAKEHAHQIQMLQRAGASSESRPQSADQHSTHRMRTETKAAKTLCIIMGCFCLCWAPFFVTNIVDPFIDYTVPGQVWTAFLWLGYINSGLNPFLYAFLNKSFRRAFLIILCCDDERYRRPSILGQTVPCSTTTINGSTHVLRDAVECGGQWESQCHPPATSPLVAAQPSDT
- Experimental Details: Inhibition of human recombinant 5HT4 receptor at 1 x 10^-8M incubated for 60 mins relative to control
- Measurement Context: dose 1.0 10^-8M
Measured inhibition, listed per entry.
Just the number in %, nothing appended.

Sample records with inhibition:
COc1c(C(=O)CCC2CCN(CC3CCCCC3)CC2)cc(F)c(N)c1I	2
CCOc1cc(N)c(Cl)cc1C(=O)CCC1CCN(CC2CCCCC2)CC1	86
Nc1ccc(C(=O)CCC2CCN(CC3CCCCC3)CC2)cc1Cl	10
COc1ccccc1C(=O)CCC1CCN(CC2CCCCC2)CC1	31
COc1cc(N)c(F)cc1C(=O)CCC1CCN(CC2CCCCC2)CC1	68

Prompt: Provide inhibition value for the following compound: Nc1cc(O)c(C(=O)CCC2CCN(CC3CCCCC3)CC2)cc1Cl
Completion: 3

Prompt: Provide inhibition value for the following compound: COc1cc(N)ccc1C(=O)CCC1CCN(CC2CCCCC2)CC1
Completion: 10

Prompt: Provide inhibition value for the following compound: Nc1ccc(C(=O)CCC2CCN(CC3CCCCC3)CC2)c(OCCF)c1
Completion: 27

Prompt: Provide inhibition value for the following compound: Nc1cc(OCCF)c(C(=O)CCC2CCN(CC3CCCCC3)CC2)cc1I
Completion: 22

* * *

- Measured Target: Acetylcholinesterase (Homo sapiens, UniProt P22303)
- Sequence (P22303 whole entry): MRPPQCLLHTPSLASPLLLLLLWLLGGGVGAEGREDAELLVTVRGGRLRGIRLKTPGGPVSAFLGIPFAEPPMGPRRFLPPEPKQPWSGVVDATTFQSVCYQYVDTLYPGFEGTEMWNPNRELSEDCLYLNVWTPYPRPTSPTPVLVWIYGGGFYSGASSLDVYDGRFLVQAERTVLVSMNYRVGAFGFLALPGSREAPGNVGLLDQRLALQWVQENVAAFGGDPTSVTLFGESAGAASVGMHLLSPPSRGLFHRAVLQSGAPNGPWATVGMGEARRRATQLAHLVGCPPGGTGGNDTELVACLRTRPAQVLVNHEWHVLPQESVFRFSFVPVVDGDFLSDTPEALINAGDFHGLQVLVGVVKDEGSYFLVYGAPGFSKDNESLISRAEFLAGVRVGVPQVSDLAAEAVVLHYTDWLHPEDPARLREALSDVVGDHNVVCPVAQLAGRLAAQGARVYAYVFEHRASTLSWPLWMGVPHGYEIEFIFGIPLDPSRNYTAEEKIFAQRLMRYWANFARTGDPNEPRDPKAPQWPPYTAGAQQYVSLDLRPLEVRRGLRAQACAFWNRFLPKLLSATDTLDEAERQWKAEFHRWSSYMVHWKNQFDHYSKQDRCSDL
- Experimental Details: Inhibition of recombinant human erythrocyte AChE using acetyl-or butyrylthiocholine iodide as substrate preincubated for 5 mins followed by substrate addition and measured every min for 10 mins by Ellman's method
Threshold-based label: IC50 under 200 nM gives rule met, IC50 not under 200 nM gives rule not met.

Below are worked cases with known answers.
Nc1ccc(C(=O)CCC2CCN(CC3CCCCC3)CC2)cc1	rule not met
CC(=O)Nc1cc(O)c(C(=O)CCC2CCN(CC3CCCCC3)CC2)cc1Cl	rule met
COc1ccccc1C(=O)CCC1CCN(CC2CCCCC2)CC1	rule met
Nc1ccc(C(=O)CCC2CCN(CC3CCCCC3)CC2)c(OCCF)c1	rule not met
COc1c(C(=O)CCC2CCN(CC3CCCCC3)CC2)cc(F)c(N)c1Br	rule not met
CCOc1cc(N)ccc1C(=O)CCC1CCN(CC2CCCCC2)CC1	rule met
COc1c(C(=O)CCC2CCN(CC3CCCCC3)CC2)cc(F)c(N)c1I	rule not met

Here is another compound to look at.
Prompt: Quick check: IC50 of Nc1ccc(C(=O)CCC2CCN(CC3CCCCC3)CC2)cc1Cl under 200 nM?
Completion: rule met

* * *

- Experimental Details: AUC in Wistar rat at 3 mg/kg, ip
- Assay type: ADME, organism-based
- Measurement Context: in vivo
Metric Name: AUC (ng·h/mL)
Just the number in ng·h/mL, nothing appended.

Prompt: Provide AUC value for the following compound: COc1cc(N)c(F)cc1C(=O)CCC1CCN(CC2CCCCC2)CC1
Completion: 9.26

* * *

- Measured Target: UniProtKB P08684
- Sequence (P08684 whole entry): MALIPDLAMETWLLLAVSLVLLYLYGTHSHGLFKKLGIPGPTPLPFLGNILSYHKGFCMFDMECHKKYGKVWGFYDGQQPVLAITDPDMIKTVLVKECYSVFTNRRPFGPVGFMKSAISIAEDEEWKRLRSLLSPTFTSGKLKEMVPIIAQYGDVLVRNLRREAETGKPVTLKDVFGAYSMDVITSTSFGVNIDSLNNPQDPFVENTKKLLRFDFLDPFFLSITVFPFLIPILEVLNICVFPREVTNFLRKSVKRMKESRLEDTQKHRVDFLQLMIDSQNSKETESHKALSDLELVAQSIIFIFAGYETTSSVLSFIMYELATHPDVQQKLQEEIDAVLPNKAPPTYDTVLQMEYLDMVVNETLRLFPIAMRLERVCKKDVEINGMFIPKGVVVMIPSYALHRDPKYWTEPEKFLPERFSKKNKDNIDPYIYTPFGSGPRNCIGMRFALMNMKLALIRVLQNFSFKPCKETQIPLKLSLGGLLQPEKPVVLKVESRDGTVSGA
- Experimental Details: Inhibition of CYP3A4 in human liver microsomes using Omeprazole as substrate
- Assay type: ADME, Microsome
Metric Name: pIC50
Scale: negative log10 of molar concentration, which is what pIC50 denotes.

Prompt: Provide pIC50 value for the following compound: COc1cc(N)c(F)cc1C(=O)CCC1CCN(CC2CCCCC2)CC1.O=C(O)/C=C/C(=O)O
Completion: 5.27
